Tested on: MDR1
PROTOCOL NOTES: MDCK-MDR1 permeability assay (BBB penetration potential)
Format: in vitro ADME
COND: dog, MDCK-MDR1, pH 7.4, MDCK-MDR1: Papp B-A
Output 1 (yes) for records whose Papp B→A at 120 min, 5 μM is lower than 40 ×10⁻⁶ cm/s, 0 (no) for records at or above 40 ×10⁻⁶ cm/s.

- Oc1cc(-n2ccnn2)ccc1-c1ccc(O[C@@H]2C[C@H]3CCC[C@H](N3)[C@@H]2F)nn1 (single isomer, unassigned): 0 (no)
- Oc1cc(-c2cn[nH]c2)ccc1-c1ccc(O[C@@H]2C[C@H]3CC(F)(F)[C@@H](C2)N3)nn1 (single isomer, unassigned): 0 (no)
- CN(C)C(=O)c1cc2cc(O)c(-c3ccc(O[C@H]4C[C@]5(C)CCC[C@@](C)(N5)[C@H]4F)nn3)cc2o1 (single isomer, unassigned): 0 (no)
- Cn1ccc2cc(O)c(-c3ccc(O[C@H]4C[C@@H]5CCC[C@@H](N5)[C@H]4F)nn3)cc2c1=O (single isomer, unassigned): 1 (yes)
- Cn1cc(-c2cc(O)c(-c3ccc(O[C@H]4C[C@@H]5CCC(N5)[C@H]4F)nn3)cn2)cn1 (single isomer, unassigned): 1 (yes)
- Oc1cc(-c2ccc3nccn3c2)ccc1-c1ccc(O[C@H]2C[C@@H]3CCC[C@@H](N3)[C@H]2F)nn1 (single isomer, unassigned): 1 (yes)

---

System: MDR1
PROTOCOL NOTES: MDCK-MDR1 permeability assay (BBB penetration potential)
Format: in vitro ADME
COND: dog, MDCK-MDR1, pH 7.4, MDCK-MDR1: Efflux
Classify as follows. Reported efflux ratio at 120 min, 5 μM greater than or equal to 5: T. Reported efflux ratio at 120 min, 5 μM below: F.

- Cn1ccc2cc(-c3ccc(O[C@@H]4C[C@@]5(C)CCC[C@](C)(N5)[C@@H]4F)nn3)c(O)cc2c1=O (single isomer, unassigned) [156-ENT1]: T
- Cn1cc(-c2ccc(-c3ccc(O[C@H]4C[C@@H]5CCC[C@@H](N5)[C@@H]4F)nn3)c(O)c2)cn1 (single isomer, unassigned) [49-ENT2]: F
- C[C@]12CCC[C@](C)(N1)[C@H](F)[C@H](Oc1ccc(-c3ccc(C#N)cc3O)nn1)C2 (single isomer, unassigned) [145-ENT1]: F
- COc1cc(-c2ccc(-c3ccc(O[C@H]4C[C@@H]5CCC[C@@H](N5)[C@H]4F)nn3)c(O)c2)cnn1 (single isomer, unassigned) [76-ENT2]: T
- Cn1ccc2cc(-c3ccc(O[C@@H]4C[C@@]5(C)CC[C@](C)(N5)[C@@H]4F)nn3)c(O)cc2c1=O (single isomer, unassigned) [127-ENT2]: T
- N#Cc1ccc(-c2ccc(O[C@@H]3C[C@H]4CCC[C@H](N4)[C@@H]3F)nn2)c(O)c1 (single isomer, unassigned) [110-ENT1]: T
- C[C@@]12CCC[C@@](C)(N1)[C@@H](F)[C@@H](Oc1ccc(-c3ccc(C#N)cc3O)nn1)C2 (single isomer, unassigned) [145-ENT2]: T
- Cn1cc(-c2ccc(-c3ccc(O[C@H]4C[C@@H]5CC[C@@H](N5)[C@H]4F)nn3)c(O)c2)cn1 (single isomer, unassigned) [60-ENT2]: F
- Oc1cc(-c2cn[nH]c2)ccc1-c1ccc(O[C@H]2C[C@@H]3CC(F)(F)[C@H](C2)N3)nn1 (single isomer, unassigned) [46-ENT1]: F
- Cc1cnc(-c2ccc(-c3ccc(O[C@@H]4C[C@H]5CCC[C@H](N5)[C@@H]4F)nn3)c(O)c2)cn1 (single isomer, unassigned) [78-ENT1]: F
- C[C@@]12CC[C@@](C)(N1)[C@@H](F)[C@@H](Oc1ccc(-c3ccc(-c4cn[nH]c4)cc3O)nn1)C2 (single isomer, unassigned) [2-ENT2]: F
- CNC(=O)c1ccc2cc(-c3ccc(O[C@H]4C[C@]5(C)CCC[C@@](C)(N5)[C@H]4F)nn3)c(O)cc2n1 (single isomer, unassigned) [137-ENT1]: T
- Cn1cc(-c2ccc(-c3ccc(O[C@@H]4C[C@@]5(C)CCC[C@](C)(N5)[C@@H]4F)nn3)c(O)c2)cn1 (single isomer, unassigned) [154-ENT2]: F
- Cn1cc(-c2ccc(-c3ccc(O[C@@H]4C[C@H]5CCC[C@H](N5)[C@H]4F)nn3)c(O)c2)cn1 (single isomer, unassigned) [49-ENT1]: F
- C[C@]12CC[C@](C)(N1)[C@H](F)[C@H](Oc1ccc(-c3ccc(-c4cn[nH]c4)cc3O)nn1)C2 (single isomer, unassigned) [2-ENT1]: T
- Cc1ccc(-c2ccc(-c3ccc(O[C@@H]4C[C@H]5CCC[C@H](N5)[C@@H]4F)nn3)c(O)c2)cn1 (single isomer, unassigned) [67-ENT1]: T
- Cn1ccc(-c2ccc(-c3ccc(O[C@@H]4C[C@H]5CCC[C@H](N5)[C@@H]4F)nn3)c(O)c2)n1 (single isomer, unassigned) [68-ENT1]: T
- Cn1ccc2cc(O)c(-c3ccc(O[C@H]4C[C@@H]5CC[C@@H](N5)[C@H]4F)nn3)cc2c1=O (single isomer, unassigned) [129-ENT1]: T
- Cc1ccc(-c2ccc(-c3ccc(O[C@@H]4C[C@H]5CCC[C@H](N5)[C@@H]4F)nn3)c(O)c2)nn1 (single isomer, unassigned) [75-ENT1]: T
